- testName: Metabolic stability in mouse liver microsomes assessed as parent compound remaining at 5 uM in presence of NADPH regenerating system measured after 1 hr by LC/MS/MS method
- Type: ADME, Microsome
assayEndpoint: Stability (%)

- structureSmiles: "COc1cc(-c2nc(-c3cccs3)c(C)[nH]2)cc(OC)c1O"
  sign: "="
  observed: 95
- structureSmiles: "CCc1nc(-c2cc(OC)c(O)c(OC)c2)[nH]c1CC"
  sign: "="
  observed: 75
- structureSmiles: "COc1ccc(-c2nc(-c3cc(OC)c(O)c(OC)c3)[nH]c2-c2ccc(OC)cc2)cc1"
  sign: "="
  observed: 73
- structureSmiles: "Oc1c(OCC(F)(F)F)cc(-c2nc(-c3ccccc3)c(-c3cccs3)[nH]2)cc1OCC(F)(F)F"
  sign: ">"
  observed: 95
- structureSmiles: "COc1cc(-c2nc(-c3ccccc3)c(-c3ccccc3)[nH]2)cc(OC)c1O"
  sign: ">"
  observed: 95

----------
- testName: Metabolic stability in mouse liver microsomes assessed as parent compound remaining at 5 uM in presence of NADPH regenerating system measured after 1 hr by LC/MS/MS method
- Format: ADME, Microsome
Kind request: treat 90% as inclusive, so Stability at 90% or higher is YES, anything lower is NO.

- structureSmiles: "COc1cc(-c2nc(-c3ccc(C)cc3)c(-c3ccc(C)cc3)[nH]2)cc(OC)c1O"
  class: "YES"
- structureSmiles: "COc1cc(-c2nc(C(C)C)c(C(C)C)[nH]2)cc(OC)c1O"
  class: "NO"
- structureSmiles: "COc1cc(-c2nc(-c3ccccc3)c(C(C)C)[nH]2)cc(OC)c1O"
  class: "YES"
- structureSmiles: "COc1cc(-c2nc(C)c(-c3ccccc3)[nH]2)cc(OC)c1O"
  class: "NO"
- structureSmiles: "CC(C)Oc1cc(-c2nc(-c3ccccc3)c(-c3cccs3)[nH]2)cc(OC(C)C)c1O"
  class: "NO"
- structureSmiles: "COc1cc(-c2nc(-c3cccs3)c(-c3ccccc3)[nH]2)cc(OC)c1O"
  class: "YES"
- structureSmiles: "CCOc1cc(-c2nc(-c3ccccc3)c(-c3cccs3)[nH]2)cc(OCC)c1O"
  class: "NO"

----------
Documented pIC50 across a set of molecules
- testedOn: Sphingomyelin phosphodiesterase 3 (Homo sapiens, UniProt Q9NY59)
- Sequence (Q9NY59 whole entry): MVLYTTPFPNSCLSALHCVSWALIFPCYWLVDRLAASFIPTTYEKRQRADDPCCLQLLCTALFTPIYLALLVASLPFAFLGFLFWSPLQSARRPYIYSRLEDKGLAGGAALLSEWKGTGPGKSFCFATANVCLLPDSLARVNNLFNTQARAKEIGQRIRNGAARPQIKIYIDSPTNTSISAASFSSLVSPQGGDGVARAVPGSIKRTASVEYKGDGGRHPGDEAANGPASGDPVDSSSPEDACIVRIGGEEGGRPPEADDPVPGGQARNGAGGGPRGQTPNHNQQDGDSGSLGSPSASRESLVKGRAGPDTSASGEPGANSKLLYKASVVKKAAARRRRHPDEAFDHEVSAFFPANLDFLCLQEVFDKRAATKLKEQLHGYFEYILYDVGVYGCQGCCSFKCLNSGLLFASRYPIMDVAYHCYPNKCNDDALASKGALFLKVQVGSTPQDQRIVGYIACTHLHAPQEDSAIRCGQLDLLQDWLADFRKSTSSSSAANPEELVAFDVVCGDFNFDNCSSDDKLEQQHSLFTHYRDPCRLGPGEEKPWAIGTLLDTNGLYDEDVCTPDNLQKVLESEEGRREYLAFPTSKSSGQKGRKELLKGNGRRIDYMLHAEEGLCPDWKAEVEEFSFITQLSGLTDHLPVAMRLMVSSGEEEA
- testName: Inhibition of human recombinant nSMase expressed in HEK293 cells using sphingomyelin as substrate by alkaline phosphatase, choline oxidase and horseradish peroxidase dependent H2O2 detection based fluorescence coupled assay
pIC50: −log10 of the molar value.
assayEndpoint: pIC50

- structureSmiles: "COc1cc(-c2nc(-c3ccc(C)cc3)c[nH]2)cc(OC)c1O"
  assayEndpoint: "pIC50"
  sign: "="
  observed: 6.89
- structureSmiles: "COc1cc(C2=NCCN2)cc(OC)c1O"
  assayEndpoint: "pIC50"
  sign: "<"
  observed: 4.00
- structureSmiles: "COc1cc(-c2nc(-c3ccccc3)c(C(C)C)[nH]2)cc(OC)c1O"
  assayEndpoint: "pIC50"
  sign: "="
  observed: 7.15
- structureSmiles: "Oc1c(OCC(F)(F)F)cc(-c2nc(-c3ccccc3)c(-c3cccs3)[nH]2)cc1OCC(F)(F)F"
  assayEndpoint: "pIC50"
  sign: "="
  observed: 7.15
- structureSmiles: "COc1cc(-c2ncc(C)[nH]2)cc(OC)c1O"
  assayEndpoint: "pIC50"
  sign: "="
  observed: 6.66
- structureSmiles: "COc1cc(-c2nc(C(C)C)c(C(C)C)[nH]2)cc(OC)c1O"
  assayEndpoint: "pIC50"
  sign: "="
  observed: 7.05
- structureSmiles: "Oc1ccccc1-c1nc(-c2ccccc2)c(-c2cccs2)[nH]1"
  assayEndpoint: "pIC50"
  sign: "<"
  observed: 4.00
- structureSmiles: "COc1cc(-c2nc3c([nH]2)CCCC3)cc(OC)c1O"
  assayEndpoint: "pIC50"
  sign: "="
  observed: 6.38
- structureSmiles: "CCOc1cc(-c2nc(-c3ccccc3)c(-c3cccs3)[nH]2)cc(OCC)c1O"
  assayEndpoint: "pIC50"
  sign: "="
  observed: 8.00
- structureSmiles: "Oc1c(OC2CCCC2)cc(-c2nc(-c3ccccc3)c(-c3cccs3)[nH]2)cc1OC1CCCC1"
  assayEndpoint: "pIC50"
  sign: "="
  observed: 6.92
- structureSmiles: "COc1cc(-c2nccs2)cc(OC)c1O"
  assayEndpoint: "pIC50"
  sign: "="
  observed: 4.70
- structureSmiles: "Oc1ccc(-c2nc(-c3ccccc3)c(-c3cccs3)[nH]2)cc1"
  assayEndpoint: "pIC50"
  sign: "="
  observed: 5.68
- structureSmiles: "Oc1cccc(-c2nc(-c3ccccc3)c(-c3cccs3)[nH]2)c1"
  assayEndpoint: "pIC50"
  sign: "<"
  observed: 4.00

----------
- testedOn: Sphingomyelin phosphodiesterase 3 (Homo sapiens)
- testName: Inhibition of human recombinant nSMase expressed in HEK293 cells using sphingomyelin as substrate by alkaline phosphatase, choline oxidase and horseradish peroxidase dependent H2O2 detection based fluorescence coupled assay
pIC50: −log10 of the molar value.
Kind request: treat 7 as inclusive, so pIC50 at 7 or higher is t, anything lower is f.

- structureSmiles: "CC(C)Oc1cc(-c2nc(-c3ccccc3)c(-c3cccs3)[nH]2)cc(OC(C)C)c1O"
  testedOn: "Sphingomyelin phosphodiesterase 3 (Homo sapiens)"
  class: "t"
- structureSmiles: "COc1cc(-c2nc(C)c(C)[nH]2)cc(OC)c1O"
  testedOn: "Sphingomyelin phosphodiesterase 3 (Homo sapiens)"
  class: "f"
- structureSmiles: "COc1cc(-c2nc(-c3ccco3)c(-c3ccco3)[nH]2)cc(OC)c1O"
  testedOn: "Sphingomyelin phosphodiesterase 3 (Homo sapiens)"
  class: "t"
- structureSmiles: "CC(C)(C)Oc1cc(-c2nc(-c3ccccc3)c(-c3cccs3)[nH]2)cc(OC(C)(C)C)c1O"
  testedOn: "Sphingomyelin phosphodiesterase 3 (Homo sapiens)"
  class: "f"
- structureSmiles: "COc1cc(-c2nc(-c3ccccc3)c(-c3cccs3)[nH]2)cc(OC)c1OC"
  testedOn: "Sphingomyelin phosphodiesterase 3 (Homo sapiens)"
  class: "f"
- structureSmiles: "Oc1c(Cl)cc(-c2nc(-c3ccccc3)c(-c3cccs3)[nH]2)cc1Cl"
  testedOn: "Sphingomyelin phosphodiesterase 3 (Homo sapiens)"
  class: "f"
- structureSmiles: "COc1cc(-c2nc(-c3cccs3)c(C)[nH]2)cc(OC)c1O"
  testedOn: "Sphingomyelin phosphodiesterase 3 (Homo sapiens)"
  class: "t"
- structureSmiles: "COc1cc(-c2ncc[nH]2)cc(OC)c1O"
  testedOn: "Sphingomyelin phosphodiesterase 3 (Homo sapiens)"
  class: "f"

----------
- testName: Ratio of drug level of test compound to drug level of DPTIP in CD-1 mouse brain at 10 mg/kg, po measured after 2 hrs by UPLC and LC-MS/MS analysis
- Type: ADME, organism-based
- testSettings: in vivo

- structureSmiles: "COc1cc(-c2nc(C(C)C)c(C(C)C)[nH]2)cc(OC)c1O"
  Ratio: 3

----------
- Organism: Homo sapiens
- testName: Selectivity index, ratio of IC50 for alkaline phosphatase (unknown origin) to IC50 for Inhibition of human recombinant nSMase expressed in HEK293 cells
- Assay type: cell-based

- structureSmiles: "COc1cc(-c2nc(-c3ccc(C)cc3)c(-c3ccc(C)cc3)[nH]2)cc(OC)c1O"
  Ratio IC50: "> 5"
- structureSmiles: "COc1cc(-c2ncc(C)[nH]2)cc(OC)c1O"
  Ratio IC50: "< 5"
- structureSmiles: "COc1cc(-c2nc(C(C)C)c(C(C)C)[nH]2)cc(OC)c1O"
  Ratio IC50: "> 5"
- structureSmiles: "Oc1ccc(-c2nc(-c3ccccc3)c(-c3cccs3)[nH]2)cc1"
  Ratio IC50: "< 5"
- structureSmiles: "COc1cc(-c2nc(-c3cccs3)c(-c3cccs3)[nH]2)cc(OC)c1O"
  Ratio IC50: "> 5"
- structureSmiles: "CCCCc1[nH]c(-c2cc(OC)c(O)c(OC)c2)nc1C"
  Ratio IC50: "> 5"
- structureSmiles: "COc1cc(-c2nc(C)c(C)[nH]2)cc(OC)c1O"
  Ratio IC50: "< 5"
- structureSmiles: "COc1cc(-c2nc(-c3ccccc3)c(C(C)C)[nH]2)cc(OC)c1O"
  Ratio IC50: "> 5"
- structureSmiles: "COc1cc(-c2nc(-c3cccs3)c(C)[nH]2)cc(OC)c1O"
  Ratio IC50: "> 5"
- structureSmiles: "COc1cc(-c2nccs2)cc(OC)c1O"
  Ratio IC50: "< 5"
- structureSmiles: "Oc1c(OC2CCCC2)cc(-c2nc(-c3ccccc3)c(-c3cccs3)[nH]2)cc1OC1CCCC1"
  Ratio IC50: "> 5"

----------
Documented Ratio IC50 across a set of molecules
- Species on record: Homo sapiens
- testName: Selectivity index, ratio of IC50 for choline oxidase (unknown origin) to IC50 for Inhibition of human recombinant nSMase expressed in HEK293 cells
- Type: cell-based

- structureSmiles: "COc1cc(-c2nc(C(C)C)c(C(C)C)[nH]2)cc(OC)c1O"
  Ratio IC50: "> 5"
- structureSmiles: "COc1cc(-c2nc(-c3cccs3)c(-c3cccs3)[nH]2)cc(OC)c1O"
  Ratio IC50: "> 5"
- structureSmiles: "COc1cc(-c2ncc(-c3ccccc3)[nH]2)cc(OC)c1O"
  Ratio IC50: "> 5"
- structureSmiles: "Oc1cccc(-c2nc(-c3ccccc3)c(-c3cccs3)[nH]2)c1"
  Ratio IC50: "> 5"
- structureSmiles: "COc1cc(-c2nc(-c3ccccc3)c(C(C)C)[nH]2)cc(OC)c1O"
  Ratio IC50: "> 5"
- structureSmiles: "COc1cc(C2=NCCN2)cc(OC)c1O"
  Ratio IC50: "> 5"
- structureSmiles: "Oc1c(OCC(F)(F)F)cc(-c2nc(-c3ccccc3)c(-c3cccs3)[nH]2)cc1OCC(F)(F)F"
  Ratio IC50: "> 5"
- structureSmiles: "COc1cc(-c2nc3c([nH]2)CCCC3)cc(OC)c1O"
  Ratio IC50: "< 5"
- structureSmiles: "COc1cc(-c2ncc[nH]2)cc(OC)c1O"
  Ratio IC50: "> 5"
- structureSmiles: "Oc1ccccc1-c1nc(-c2ccccc2)c(-c2cccs2)[nH]1"
  Ratio IC50: "> 5"
- structureSmiles: "Oc1c(Cl)cc(-c2nc(-c3ccccc3)c(-c3cccs3)[nH]2)cc1Cl"
  Ratio IC50: "> 5"
- structureSmiles: "COc1cc(-c2nc(C)c(-c3ccccc3)[nH]2)cc(OC)c1O"
  Ratio IC50: "> 5"
- structureSmiles: "COc1cc(OC)cc(-c2nc(-c3ccccc3)c(-c3cccs3)[nH]2)c1"
  Ratio IC50: "> 5"
- structureSmiles: "Oc1ccc(-c2nc(-c3ccccc3)c(-c3cccs3)[nH]2)cc1"
  Ratio IC50: "< 5"
- structureSmiles: "COc1cc(-c2nccs2)cc(OC)c1O"
  Ratio IC50: "< 5"
- structureSmiles: "COc1ccc(-c2nc(-c3cc(OC)c(O)c(OC)c3)[nH]c2-c2ccc(OC)cc2)cc1"
  Ratio IC50: "> 5"
- structureSmiles: "CC(C)(C)Oc1cc(-c2nc(-c3ccccc3)c(-c3cccs3)[nH]2)cc(OC(C)(C)C)c1O"
  Ratio IC50: "> 5"
- structureSmiles: "CCCCc1[nH]c(-c2cc(OC)c(O)c(OC)c2)nc1C"
  Ratio IC50: "> 5"
- structureSmiles: "COc1cc(-c2nc(-c3ccccc3)c(-c3cccs3)[nH]2)cc(OC)c1OC"
  Ratio IC50: "> 5"
- structureSmiles: "COc1cc(-c2nc(-c3ccc(C)cc3)c(-c3ccc(C)cc3)[nH]2)cc(OC)c1O"
  Ratio IC50: "> 5"
- structureSmiles: "COc1cc(-c2nc(-c3ccccc3)c(-c3cccs3)[nH]2)ccc1O"
  Ratio IC50: "> 5"
- structureSmiles: "COc1cc(-c2nc(-c3cccs3)c(C)[nH]2)cc(OC)c1O"
  Ratio IC50: "> 5"
- structureSmiles: "CC(C)Oc1cc(-c2nc(-c3ccccc3)c(-c3cccs3)[nH]2)cc(OC(C)C)c1O"
  Ratio IC50: "> 5"
- structureSmiles: "COc1cc(-c2nc(-c3ccco3)c(-c3ccco3)[nH]2)cc(OC)c1O"
  Ratio IC50: "> 5"
- structureSmiles: "COc1cc(-c2nc(-c3ccccc3)c(-c3ccccc3)[nH]2)cc(OC)c1O"
  Ratio IC50: "> 5"
- structureSmiles: "CCOc1cc(-c2nc(-c3ccccc3)c(-c3cccs3)[nH]2)cc(OCC)c1O"
  Ratio IC50: "> 5"
- structureSmiles: "Oc1c(OC2CCCC2)cc(-c2nc(-c3ccccc3)c(-c3cccs3)[nH]2)cc1OC1CCCC1"
  Ratio IC50: "> 5"
- structureSmiles: "COc1cc(-c2nc(-c3ccc(C)cc3)c[nH]2)cc(OC)c1O"
  Ratio IC50: "> 5"
- structureSmiles: "COc1cc(-c2ncc(C)[nH]2)cc(OC)c1O"
  Ratio IC50: "< 5"
- structureSmiles: "COc1cc(-c2nc(C)c(C)[nH]2)cc(OC)c1O"
  Ratio IC50: "< 5"
- structureSmiles: "CCc1nc(-c2cc(OC)c(O)c(OC)c2)[nH]c1CC"
  Ratio IC50: "> 5"

Just for reference, ChEMBL document CHEMBL4385599 is where these values come from.
